Hi there, I'd appreciate the recorded Kd for every entry that follows.
- TARGET_SYSTEM: T1, his-tagged murine TIGIT (Acro Biosystems #TIT-M52E6) (murine, UniProt P86176 29-148, limits assumed)
- T1 construct: Bought protein; also called mouse his-tagged TIGIT; not shown: his tag
- T1 sequence (looked up): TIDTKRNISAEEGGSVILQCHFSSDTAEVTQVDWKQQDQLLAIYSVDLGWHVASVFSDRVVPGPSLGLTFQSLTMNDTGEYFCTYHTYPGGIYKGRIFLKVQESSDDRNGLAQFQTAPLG
- ASSAY_METHOD_TEXT: SPR (Carterra LSA), scFv-Fc captured, His-TIGIT analyte
Field format: number, assumed nM, no unit text.

Incoming: What value of Kd has been recorded for this entry: 43586p2.D11 (scFv, V domains shown) VH: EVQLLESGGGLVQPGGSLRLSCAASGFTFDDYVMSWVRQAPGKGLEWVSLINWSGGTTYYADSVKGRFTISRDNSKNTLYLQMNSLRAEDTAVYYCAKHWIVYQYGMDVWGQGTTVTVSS VL: QSVLTQPSSASGTPGQRVAISCSGTISNIETKYVSWYKYVSWYQQLPGTAPKLLIYNNVQRPSGVPDRFSGSQSGTSASLAISGLQSEDEAHYYCASWEGGLNSWVFGGGTKLTVL
Outgoing: 41.4

Incoming: Kd for 43586p1.2.B2 (scFv, V domains shown) VH: EMQLLESGGGLVQPGGSLRLSCAASGFTFDDYVMSWVRQAPGKGLEWVSLINWNGDKTYYADSVKGRFTISRDNSKNTLYLQMNSLRAEDTAIYYCAKHWIVFQYGMDVWGQGTTVTVSS VL: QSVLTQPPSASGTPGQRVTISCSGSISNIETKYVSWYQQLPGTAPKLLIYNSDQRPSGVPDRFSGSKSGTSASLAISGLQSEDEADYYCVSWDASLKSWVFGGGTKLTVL ?
Outgoing: 3.28

Incoming: Using the record for 43586p1.2.C5 (scFv, V domains shown) VH: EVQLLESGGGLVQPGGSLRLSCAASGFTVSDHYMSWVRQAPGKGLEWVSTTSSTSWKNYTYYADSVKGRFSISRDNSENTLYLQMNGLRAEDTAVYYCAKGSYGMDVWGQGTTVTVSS VL: QSVLTQPPSASGTPGQRVTISCSGSNFNIGTKYLYWYQQLPGTAPKLLIYLDSQRPSGVPDRFSTSKPGTSASLAISGLQSEDEADYYCALWDDHLHGWVFGGGTKLTVL , report its Kd.
Outgoing: 3.2

Incoming: Give its Kd value. Item: 43352p1.H8 (scFv, V domains shown) VH: DVQLVESGGGVVRPGESLRLSCAASGFNFSTYAMNWVRQAPGEGLEWVSGISGRSSGDTTYYADSVRGWFTVSRDNSKNTLYLQMSSLRAEDTAVYYCARETWIRGYFDYWGLGTLVTVSS VL: QSVLTQPPSASGTPGQRVTISCSGSRSNLGNNLVYWYQQLPGTAPKLLIYFNNERPSGVPDRFSGSKSGTSASLAISGVQSEDEADYYCATWDDSLNGWVFGGGTKLTVL
Outgoing: 1.14

Incoming: Look up Kd for this binder: 43645p1.F11 (scFv, V domains shown) VH: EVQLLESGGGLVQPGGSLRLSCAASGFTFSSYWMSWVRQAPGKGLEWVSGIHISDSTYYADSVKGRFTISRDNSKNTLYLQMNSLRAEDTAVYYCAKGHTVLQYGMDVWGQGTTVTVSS VL: QSGLTQPPSASGTPGQRVTISCSGDISNTRNNYVSWYQQLPGTAPKLLIYRNSQRPSGVPDRFSGSKSATSASLAISGLQSEDEADYYCGTWDNTLNAWVFGGGTKLTVL
Outgoing: 235
